- TARGET_SYSTEM: Nluc-A1R (adenosine A1 receptor) S267A (Homo sapiens, UniProt P30542, S267A)
- Sequence (P30542 1-326 S267A): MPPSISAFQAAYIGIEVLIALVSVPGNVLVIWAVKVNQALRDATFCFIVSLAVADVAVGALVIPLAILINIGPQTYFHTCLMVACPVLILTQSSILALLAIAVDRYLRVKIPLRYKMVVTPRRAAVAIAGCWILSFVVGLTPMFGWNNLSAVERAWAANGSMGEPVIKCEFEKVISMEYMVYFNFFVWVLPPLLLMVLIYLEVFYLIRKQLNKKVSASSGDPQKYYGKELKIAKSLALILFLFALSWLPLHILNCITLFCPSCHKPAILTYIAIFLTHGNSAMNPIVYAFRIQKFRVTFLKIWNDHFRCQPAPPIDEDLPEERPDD
- METHOD_SUMMARY: cell-based
VALUE_KIND: Ki
Hi, when you answer, please include the unit after the number. Thanks!

Query: Given the entry OC[C@H]1O[C@@H](n2cnc3c(N[C@@H]4CCC[C@H]4O)ncnc32)[C@H](O)[C@@H]1O , report its measured Ki.
Result: 1020 nM
